# reported kon; entries follow
target-entity: T1, purified human CD117 ectodomain (R&D Systems #332-SR) (human, UniProt P10721 26-524)
T1 construct: extracellular domain; Bought protein; also called c-kit; purified recombinant human CD117 ectodomain
T1 sequence (P10721 26-524): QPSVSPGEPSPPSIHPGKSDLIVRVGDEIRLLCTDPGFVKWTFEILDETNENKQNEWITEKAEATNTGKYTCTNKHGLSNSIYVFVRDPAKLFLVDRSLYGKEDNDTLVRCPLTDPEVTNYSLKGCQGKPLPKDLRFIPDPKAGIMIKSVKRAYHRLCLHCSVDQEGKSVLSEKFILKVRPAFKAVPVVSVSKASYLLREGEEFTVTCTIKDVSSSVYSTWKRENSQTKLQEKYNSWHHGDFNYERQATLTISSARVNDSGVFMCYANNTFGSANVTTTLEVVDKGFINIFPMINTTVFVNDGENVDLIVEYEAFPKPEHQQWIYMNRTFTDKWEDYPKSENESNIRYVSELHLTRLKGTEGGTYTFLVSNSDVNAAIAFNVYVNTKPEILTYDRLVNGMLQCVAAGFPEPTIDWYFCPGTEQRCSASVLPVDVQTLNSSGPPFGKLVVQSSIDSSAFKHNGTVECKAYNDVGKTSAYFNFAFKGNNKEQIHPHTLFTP
experiment: BLI, IgG on anti-human Fc sensor, 33 and 11 nM ectodomain;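 note: Kd, kon and koff are apparent values, with Kd reported as the apparent monovalent affinity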
quantity-kind: kon (M⁻¹ s⁻¹)

binder	measurement
HC-81/LC-81 (Ab81) (antibody, IgG1, V domains shown, Purified human antibody tested as an IgG1; hIgG1/hKappa; also called Antibody 81) VH: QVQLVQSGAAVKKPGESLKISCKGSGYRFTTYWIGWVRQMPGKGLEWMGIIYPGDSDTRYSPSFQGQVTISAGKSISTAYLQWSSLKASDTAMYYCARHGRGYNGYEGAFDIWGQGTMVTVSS VL: DIQLTQSPSSLSASVGDRVTITCRASQGVISALAWYQQKPGKAPKLLIYDASTLESGVPSRFSGSGSGTDFTLTISSLQPEDFATYYCQQFNSYPLTFGGGTKVEIK	288000
HC-1/LC-1 (Ab1) (antibody, IgG1, V domains shown, Purified IgG (IgG1); also called 001; CK6 derivative Ab1) VH: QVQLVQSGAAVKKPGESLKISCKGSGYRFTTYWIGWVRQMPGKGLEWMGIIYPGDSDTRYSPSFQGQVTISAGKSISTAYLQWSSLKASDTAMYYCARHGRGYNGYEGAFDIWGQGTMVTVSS VL: AIQLTQSPSSLSASVGDRVTITCRASQGVSSALAWYQQKPGKAPKLLIYDASSLESGVPSRFSGSGSGTDFTLTISSLQPEDFATYYCQQFNSYPLTFGGGTKVEIK	556000
HC-246/LC-246 (Ab246) (antibody, V domains shown, IgG on anti-human Fc sensors; hIgG1/hKappa) VH: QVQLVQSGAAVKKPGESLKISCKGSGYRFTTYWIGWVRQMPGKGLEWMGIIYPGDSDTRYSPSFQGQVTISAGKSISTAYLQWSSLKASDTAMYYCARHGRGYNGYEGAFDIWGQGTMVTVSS VL: DIQMTQSPSSLSASVGDRVTITCRASQGIGSALAWYQQKPGKAPKLLIYDASTLESGVPSRFSGSGSGTDFTLTISSLQPEDFATYYCQQFNGYPLTFGQGTRLEIK	361000
HC-248/LC-248 (Ab248) (antibody, V domains shown, IgG on anti-human Fc sensors; hIgG1/hKappa) VH: EVQLVQSGAEVKKPGESLKISCKGSGYRFTTSWIGWVRQMPGKGLEWMGIIYPGDSDTRYSPSFQGQVTISADKSISTAYLQWSSLKASDTAMYYCARHGLGYNGYEGAFDIWGQGTLVTVSS VL: DIQMTQSPSSLSASVGDRVTITCRASQGIGSALAWYQQKPGKAPKLLIYDASTLESGVPSRFSGSGSGTDFTLTISSLQPEDFATYYCQQLNGYPLTFGQGTRLEIK	346000
HC-85/LC-85 (Ab85) (antibody, V domains shown, Purified IgG, hIgG1/hKappa; also called Antibody 85) VH: EVQLVQSGAEVKKPGESLKISCKGSGYSFTNYWIGWVRQMPGKGLEWMAIINPRDSDTRYRPSFQGQVTISADKSISTAYLQWSSLKASDTAMYYCARHGRGYEGYEGAFDIWGQGTLVTVSS VL: DIQMTQSPSSLSASVGDRVTITCRSSQGIRSDLGWYQQKPGKAPKLLIYDASNLETGVPSRFSGSGSGTDFTLTISSLQPEDFATYYCQQANGFPLTFGGGTKVEIK	520000
HC-77/LC-77 (Ab77) (antibody, IgG1, V domains shown, Purified human antibody tested as an IgG1; hIgG1/hKappa; also called Antibody 77) VH: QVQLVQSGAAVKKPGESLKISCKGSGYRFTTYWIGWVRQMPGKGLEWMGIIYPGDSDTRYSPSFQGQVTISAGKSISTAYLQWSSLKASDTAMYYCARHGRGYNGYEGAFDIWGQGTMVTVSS VL: DIQLTQSPSSLSASVGDRVTITCRASQGVISALAWYQQKPGKAPKLLIYDASILESGVPSRFSGSGSGTDFTLTISSLQPEDFATYYCQQFNSYPLTFGGGTKVEIK	315000
HC-247/LC-247 (Ab247) (antibody, V domains shown, IgG on anti-human Fc sensors; hIgG1/hKappa) VH: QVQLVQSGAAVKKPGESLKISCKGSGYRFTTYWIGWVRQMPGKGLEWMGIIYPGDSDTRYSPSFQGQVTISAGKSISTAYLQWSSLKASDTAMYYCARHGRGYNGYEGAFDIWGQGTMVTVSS VL: DIQMTQSPSSLSASVGDRVTITCRASRGISDYLAWYQQKPGKAPKLLIYDASNLETGVPSRFSGSGSGTDFTLTISSLQPEDFATYYCQQANSFPITFGQGTRLEIK	374000
HC-249/LC-249 (Ab249) (antibody, V domains shown, IgG on anti-human Fc sensors; hIgG1/hKappa) VH: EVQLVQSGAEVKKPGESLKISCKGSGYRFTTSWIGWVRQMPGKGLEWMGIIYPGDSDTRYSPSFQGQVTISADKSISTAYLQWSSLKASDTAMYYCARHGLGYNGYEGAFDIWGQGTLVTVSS VL: DIQMTQSPSSLSASVGDRVTITCRASQGIGSALAWYQQKPGKAPKLLIYDASNLETGVPSRFSGSGSGTDFTLTISSLQPEDFATYYCQQLNGYPLTFGQGTRLEIK	344000
HC-245/LC-245 (Ab245) (antibody, V domains shown, IgG on anti-human Fc sensors; hIgG1/hKappa) VH: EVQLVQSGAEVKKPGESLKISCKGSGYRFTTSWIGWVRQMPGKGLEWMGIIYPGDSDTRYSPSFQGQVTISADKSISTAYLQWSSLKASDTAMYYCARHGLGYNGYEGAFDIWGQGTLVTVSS VL: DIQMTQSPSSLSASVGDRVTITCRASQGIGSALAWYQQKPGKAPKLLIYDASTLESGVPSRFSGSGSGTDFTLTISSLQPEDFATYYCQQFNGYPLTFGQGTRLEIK	350000
HC-79/LC-79 (Ab79) (antibody, IgG1, V domains shown, Purified human antibody tested as an IgG1; hIgG1/hKappa; also called Antibody 79) VH: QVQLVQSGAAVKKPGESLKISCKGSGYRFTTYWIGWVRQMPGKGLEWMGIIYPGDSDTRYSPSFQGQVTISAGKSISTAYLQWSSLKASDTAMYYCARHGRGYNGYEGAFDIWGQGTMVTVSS VL: DIQLTQSPSSLSASVGDRVTITCRASQGVGSALAWYQQKPGKAPKLLIYDASILESGVPSRFSGSGSGTDFTLTISSLQPEDFATYYCQQFNSYPLTFGGGTKVEIK	316000
